Target: T1, AIRE-PHD1 Glu298Ala (human, UniProt O43918 293-354, Glu298Ala)
T1 sequence (looked up): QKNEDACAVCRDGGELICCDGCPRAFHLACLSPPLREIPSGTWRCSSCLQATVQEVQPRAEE
Experiment: other fluorescence titration
observedProperty: pKd
Note on units: pKd is unitless, being -log10 of a concentration expressed in mol/L.

Exercise: Given the binder ARTKQTARKS [non-modified histone H3 tail peptide H3K4me0 (residues 1-10)] , what is its reported pKd?
Key: 4.55
